Listing: EC50 of selected compounds
Experimental System: Human GPR120 short form (Homo sapiens, UniProt Q5NUL3)
Construct: expressed in transfected cells
Sequence (Q5NUL3 whole entry): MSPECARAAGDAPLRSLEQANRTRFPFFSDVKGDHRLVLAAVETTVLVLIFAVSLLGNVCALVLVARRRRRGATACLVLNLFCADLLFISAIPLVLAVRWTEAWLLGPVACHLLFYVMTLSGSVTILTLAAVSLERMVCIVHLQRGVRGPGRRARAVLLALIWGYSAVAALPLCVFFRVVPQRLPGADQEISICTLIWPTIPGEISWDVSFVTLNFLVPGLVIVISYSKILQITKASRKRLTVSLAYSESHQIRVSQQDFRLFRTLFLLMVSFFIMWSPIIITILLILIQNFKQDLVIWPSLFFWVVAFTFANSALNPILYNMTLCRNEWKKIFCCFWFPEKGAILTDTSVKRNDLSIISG
Experiment Summary: Human GPR120 calcium flux assay, Procedure Calcium B
Type: cell-based
Condition Summary: HEK-293 cells expressing human GPR120 short form, 4200 cells/well, FLIPR
Readout Type: EC50 (µM)

[[record]]
smiles_representation = "O=C(O)CCc1cc(F)c(OCc2c(C(F)(F)F)ccn2-c2ccc(F)cc2F)c(F)c1"
reported_result = 0.156

[[record]]
smiles_representation = "Cc1ccc(-n2ccc(C(F)(F)F)c2COc2c(F)cc(CCC(=O)O)cc2F)c(F)c1"
reported_result = 0.118

[[record]]
smiles_representation = "OCCCc1cc(F)c(OCc2c(C(F)(F)F)ccn2-c2ccc(Br)cc2)c(F)c1"
reported_result = 0.246

[[record]]
smiles_representation = "OCCCc1ccc(OCc2c(Br)ccn2-c2ccc(Cl)cc2)c(F)c1F"
reported_result = 0.368

[[record]]
smiles_representation = "Cc1c(CCC(=O)O)ccc(OCc2c(C(F)(F)F)ccn2-c2ccc(Cl)c(F)c2)c1C"
reported_result = 0.357

[[record]]
smiles_representation = "Cc1c(CCC(=O)O)ccc(OCc2c(C#N)ccn2-c2ccc(Cl)cc2)c1C"
reported_result = 1.14


====

Experimental System: short form of the GPR120 receptor (Homo sapiens, UniProt Q5NUL3)
Experiment Summary: Human GPR120 DiscoveRx PathHunter β-Arrestin assay, Procedure β-arrestin B
Condition Summary: PathHunter CHO-K1 GPR120S β-Arrestin cell line, 5000 cells/well
Readout Type: EC50 (nM)

[[record]]
molecule = "Cc1ccc(-n2ccc(C(F)(F)F)c2COc2ccc(CCC(=O)O)c(C)c2C)c(F)c1 [Compound 73]"
output_unit = "nM"
reported_result = 749

[[record]]
molecule = "Cc1c(CCC(=O)O)ccc(OCc2c(C(F)(F)F)ccn2-c2ccc(Cl)cc2F)c1C [Compound 74]"
output_unit = "nM"
reported_result = 797

[[record]]
molecule = "Cc1ccc(-n2ccc(C(F)(F)F)c2COc2ccc(CCC(=O)O)c(C)c2C)cc1F [Compound 66]"
output_unit = "nM"
reported_result = 412

[[record]]
molecule = "CC(Cc1cc(F)c(OCc2c(C(F)(F)F)ccn2-c2ccc(Cl)c(F)c2)c(F)c1)C(=O)O (stereo not shown) [Compound 69]"
output_unit = "nM"
reported_result = 630


====

Experimental System: long form of human GPR120 (Homo sapiens)
Sequence (Q5NUL3 1-377 isoform Q5NUL3-1): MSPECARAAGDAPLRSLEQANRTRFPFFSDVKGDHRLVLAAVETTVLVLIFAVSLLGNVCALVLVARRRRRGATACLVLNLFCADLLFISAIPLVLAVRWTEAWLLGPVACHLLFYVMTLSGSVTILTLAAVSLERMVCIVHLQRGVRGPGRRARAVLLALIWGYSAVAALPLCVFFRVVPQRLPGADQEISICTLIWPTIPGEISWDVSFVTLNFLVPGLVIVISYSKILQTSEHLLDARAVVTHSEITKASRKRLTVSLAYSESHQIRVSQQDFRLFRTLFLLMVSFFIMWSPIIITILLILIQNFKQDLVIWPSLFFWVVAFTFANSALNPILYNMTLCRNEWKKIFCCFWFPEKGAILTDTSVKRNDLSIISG
Sequence (P32121 whole entry partner): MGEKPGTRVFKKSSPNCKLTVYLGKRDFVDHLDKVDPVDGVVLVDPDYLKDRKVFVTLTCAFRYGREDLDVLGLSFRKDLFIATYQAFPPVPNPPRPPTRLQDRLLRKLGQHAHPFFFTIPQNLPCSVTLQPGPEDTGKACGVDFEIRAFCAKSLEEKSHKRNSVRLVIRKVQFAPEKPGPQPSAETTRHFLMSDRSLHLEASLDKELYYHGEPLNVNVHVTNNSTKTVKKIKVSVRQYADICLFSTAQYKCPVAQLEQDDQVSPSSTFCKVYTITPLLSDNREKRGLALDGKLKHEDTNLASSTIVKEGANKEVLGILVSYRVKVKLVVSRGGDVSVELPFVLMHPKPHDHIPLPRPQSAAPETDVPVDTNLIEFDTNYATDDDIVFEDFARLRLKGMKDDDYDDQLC
Experiment Summary: Human GPR120 DiscoveRx PathHunter β-Arrestin assay, Procedure β-arrestin A
Condition Summary: PathHunter CHO-K1 GPR120 β-Arrestin cell line, 3000 cells per well
Listing: EC50 of selected compounds
Readout Type: EC50 (nM)

[[record]]
compound = "Cc1c(CCCO)ccc(OCc2c(C(F)(F)F)ccn2-c2ccccc2)c1C [Compound 19]"
readout_type = "EC50"
output_unit = "nM"
reported_result = 283

[[record]]
compound = "OCCCc1cc(F)c(OCc2c(C(F)(F)F)ccn2-c2ccccc2)c(F)c1 [Compound 35]"
readout_type = "EC50"
output_unit = "nM"
reported_result = 201

[[record]]
compound = "O=C(O)CCc1ccc(OCc2c(C(F)(F)F)ccn2-c2ccc(Cl)cc2)c(F)c1F [Compound 16]"
readout_type = "EC50"
output_unit = "nM"
reported_result = 639

[[record]]
compound = "OCCCc1ccc(OCc2c(C(F)(F)F)ccn2-c2ccc(Cl)cc2)c(F)c1F [Compound 29]"
readout_type = "EC50"
output_unit = "nM"
reported_result = 53

[[record]]
compound = "Cc1ccc(-n2ccc(C(F)(F)F)c2COc2c(F)cc(CCC(=O)O)cc2F)cc1 [Compound 39]"
readout_type = "EC50"
output_unit = "nM"
reported_result = 264

[[record]]
compound = "Cc1ccc(-n2ccc(C(F)(F)F)c2COc2ccc(CCC(=O)O)c(C)c2C)cc1 [Compound 43]"
readout_type = "EC50"
output_unit = "nM"
reported_result = 359

[[record]]
compound = "OCCCc1ccc(OCc2c(Br)ccn2-c2ccc(Cl)cc2)c(F)c1F [Compound 5]"
readout_type = "EC50"
output_unit = "nM"
reported_result = 130

[[record]]
compound = "OCCCc1cc(F)c(OCc2c(C(F)(F)F)ccn2-c2ccc(Cl)cc2)c(F)c1 [Compound 46]"
readout_type = "EC50"
output_unit = "nM"
reported_result = 99

[[record]]
compound = "Cc1ccc(-n2ccc(C(F)(F)F)c2COc2ccc(CCC(=O)O)c(F)c2F)cc1 [Compound 42]"
readout_type = "EC50"
output_unit = "nM"
reported_result = 293

